Source listed as patent US11091511B2.

# Cell Survival Rate listing for each entry below
- System: RAW264.7 cells
- Protocol notes: RAW264.7 cell survival rate by CCK8 method
- Assay type: cell-based, mouse
- Condition description: compound 10 prnol/L, 0.1% DMSO, CCK8, x ± s, n = 3, normal saline control = 1
Endpoint name: Cell Survival Rate

{"columns": ["Molecule", "System name", "Endpoint name", "Measurement"],
 "data": [
  ["COC(=O)[C@@H](Cc1ccc(O)cc1)NCCC[C@](C)(OC(C)=O)C1CC[C@]2(C)[C@@H]1C(OC(C)=O)CC1[C@@]3(C)CC[C@H](OC(C)=O)C(C)(C)C3CC[C@]12C (some centres unmarked) [Compound 28]", "RAW264.7 cells", "Cell Survival Rate", 0.89],
  ["COC(=O)CCC(NCCC[C@](C)(OC(C)=O)C1CC[C@]2(C)[C@@H]1C(OC(C)=O)CC1[C@@]3(C)CC[C@H](OC(C)=O)C(C)(C)C3CC[C@]12C)C(=O)OC (some centres unmarked) [Compound 23]", "RAW264.7 cells", "Cell Survival Rate", 1.01],
  ["COC(=O)[C@@H](Cc1ccc(O)cc1)NCCC[C@](C)(O[C@H]1O[C@H](COC(C)=O)[C@@H](OC(C)=O)[C@H](OC(C)=O)[C@H]1OC(C)=O)C1CC[C@]2(C)[C@@H]1C(OC(C)=O)CC1[C@@]3(C)CC[C@H](OC(C)=O)C(C)(C)C3CC[C@]12C (some centres unmarked) [Compound 13]", "RAW264.7 cells", "Cell Survival Rate", 0.85],
  ["COC(=O)CNCCC[C@](C)(O[C@H]1O[C@H](COC(C)=O)[C@@H](OC(C)=O)[C@H](OC(C)=O)[C@H]1OC(C)=O)C1CC[C@]2(C)[C@@H]1C(OC(C)=O)CC1[C@@]3(C)CC[C@H](OC(C)=O)C(C)(C)C3CC[C@]12C (some centres unmarked) [Compound 9]", "RAW264.7 cells", "Cell Survival Rate", 0.85],
  ["CCOC(=O)C(NCCC[C@](C)(O[C@H]1O[C@H](COC(C)=O)[C@@H](OC(C)=O)[C@H](OC(C)=O)[C@H]1OC(C)=O)C1CC[C@]2(C)[C@@H]1C(OC(C)=O)CC1[C@@]3(C)CC[C@H](OC(C)=O)C(C)(C)C3CC[C@]12C)C(=O)OCC (some centres unmarked) [Compound 11]", "RAW264.7 cells", "Cell Survival Rate", 0.84],
  ["COC(=O)[C@H](CC(C)C)NCCC[C@](C)(OC(C)=O)C1CC[C@]2(C)[C@@H]1C(OC(C)=O)CC1[C@@]3(C)CC[C@H](OC(C)=O)C(C)(C)C3CC[C@]12C (some centres unmarked) [Compound 19]", "RAW264.7 cells", "Cell Survival Rate", 0.91],
  ["COC(=O)[C@H](Cc1c[nH]cn1)NCCC[C@](C)(O[C@H]1O[C@H](COC(C)=O)[C@@H](OC(C)=O)[C@H](OC(C)=O)[C@H]1OC(C)=O)C1CC[C@]2(C)[C@@H]1C(OC(C)=O)CC1[C@@]3(C)CC[C@H](OC(C)=O)C(C)(C)C3CC[C@]12C (some centres unmarked) [Compound 14]", "RAW264.7 cells", "Cell Survival Rate", 0.83],
  ["COC(=O)CNCCC[C@](C)(OC(C)=O)C1CC[C@]2(C)[C@@H]1C(OC(C)=O)CC1[C@@]3(C)CC[C@H](OC(C)=O)C(C)(C)C3CC[C@]12C (some centres unmarked) [Compound 24]", "RAW264.7 cells", "Cell Survival Rate", 0.89]
]}

====

# Cell Survival Rate listing for each entry below
- System: RAW264.7 cells
- Protocol notes: RAW264.7 cell survival rate by CCK8 method
- Type: cell-based, mouse
- Condition description: compound 10 prnol/L, 0.1% DMSO, CCK8, x ± s, n = 3, normal saline control = 1
- Procedure: In order to further verify the toxicities of the compounds prepared in Examples 1-30 of the present invention, the mouse macrophage cell line RAW264.7 was cultured, and the compounds prepared in Examples 1-30 of the invention were prepared to a concentration of […] using culture medium, wherein the solvent was normal saline, the co-solvent was dimethyl sulfoxide (DMSO, the final concentratoin was 0.1%), and a 0.1% DMSO saline control group was provided. […] The data were expressed as x±s. […]

{"columns": ["Compound", "Cell Survival Rate"],
 "data": [
  ["COC(=O)[C@@H](NCCC[C@](C)(O[C@H]1O[C@H](COC(C)=O)[C@@H](OC(C)=O)[C@H](OC(C)=O)[C@H]1OC(C)=O)C1CC[C@]2(C)[C@@H]1C(OC(C)=O)CC1[C@@]3(C)CC[C@H](OC(C)=O)C(C)(C)C3CC[C@]12C)C(C)C (some centres unmarked)", "0.87 ± 0.08"],
  ["COC(=O)[C@H](NCCC[C@](C)(OC(C)=O)C1CC[C@]2(C)[C@@H]1C(OC(C)=O)CC1[C@@]3(C)CC[C@H](OC(C)=O)C(C)(C)C3CC[C@]12C)[C@@H](C)O (some centres unmarked)", "0.94 ± 0.17"]
]}

====

# Cell Survival Rate listing for each entry below
- Tested on: RAW264.7 cells
- Protocol notes: RAW264.7 cell survival rate by CCK8 method
- Type: cell-based, mouse
- Condition description: compound 10 prnol/L, 0.1% DMSO, CCK8, x ± s, n = 3, normal saline control = 1

{"columns": ["Compound", "Cell Survival Rate"],
 "data": [
  ["COC(=O)[C@@H](NCCC[C@](C)(OC(C)=O)C1CC[C@]2(C)[C@@H]1C(OC(C)=O)CC1[C@@]3(C)CC[C@H](OC(C)=O)C(C)(C)C3CC[C@]12C)C(C)C (stereo partly shown) [Compound 20]", 1.02],
  ["CCOC(=O)CCNCCC[C@](C)(O[C@H]1O[C@H](COC(C)=O)[C@@H](OC(C)=O)[C@H](OC(C)=O)[C@H]1OC(C)=O)C1CC[C@]2(C)[C@@H]1C(OC(C)=O)CC1[C@@]3(C)CC[C@H](OC(C)=O)C(C)(C)C3CC[C@]12C (stereo partly shown) [Compound 10]", 0.82],
  ["COC(=O)[C@H](Cc1c[nH]cn1)NCCC[C@](C)(OC(C)=O)C1CC[C@]2(C)[C@@H]1C(OC(C)=O)CC1[C@@]3(C)CC[C@H](OC(C)=O)C(C)(C)C3CC[C@]12C (stereo partly shown) [Compound 29]", 1.00],
  ["COC(=O)[C@H](CC1CNc2ccccc21)NCCC[C@](C)(O[C@H]1O[C@H](COC(C)=O)[C@@H](OC(C)=O)[C@H](OC(C)=O)[C@H]1OC(C)=O)C1CC[C@]2(C)[C@@H]1C(OC(C)=O)CC1[C@@]3(C)CC[C@H](OC(C)=O)C(C)(C)C3CC[C@]12C (stereo partly shown) [Compound 15]", 0.88],
  ["COC(=O)[C@H](Cc1c[nH]c2ccccc12)NCCC[C@](C)(OC(C)=O)C1CC[C@]2(C)[C@@H]1C(OC(C)=O)CC1[C@@]3(C)CC[C@H](OC(C)=O)C(C)(C)C3CC[C@]12C (stereo partly shown) [Compound 30]", 0.95],
  ["CC(=O)OC1CC2[C@@]3(C)CC[C@H](OC(C)=O)C(C)(C)C3CC[C@@]2(C)[C@]2(C)CCC([C@](C)(CCC=O)OC(C)=O)[C@@H]12 (stereo partly shown) [Compound 18]", 0.85],
  ["COC(=O)[C@H](CC(C)C)NCCC[C@](C)(O[C@H]1O[C@H](COC(C)=O)[C@@H](OC(C)=O)[C@H](OC(C)=O)[C@H]1OC(C)=O)C1CC[C@]2(C)[C@@H]1C(OC(C)=O)CC1[C@@]3(C)CC[C@H](OC(C)=O)C(C)(C)C3CC[C@]12C (stereo partly shown) [Compound 4]", 0.84],
  ["CC(=O)OC1CC2[C@@]3(C)CC[C@H](OC(C)=O)C(C)(C)C3CC[C@@]2(C)[C@]2(C)CCC([C@](C)(CCC3OC3(C)C)OC(C)=O)[C@@H]12 (stereo partly shown) [Compound 17]", 0.87],
  ["COC(=O)[C@H](Cc1ccccc1)NCCC[C@](C)(O[C@H]1O[C@H](COC(C)=O)[C@@H](OC(C)=O)[C@H](OC(C)=O)[C@H]1OC(C)=O)C1CC[C@]2(C)[C@@H]1C(OC(C)=O)CC1[C@@]3(C)CC[C@H](OC(C)=O)C(C)(C)C3CC[C@]12C (stereo partly shown) [Compound 12]", 0.87],
  ["COC(=O)CC[C@H](NCCC[C@](C)(O[C@H]1O[C@H](COC(C)=O)[C@@H](OC(C)=O)[C@H](OC(C)=O)[C@H]1OC(C)=O)C1CC[C@]2(C)[C@@H]1C(OC(C)=O)CC1[C@@]3(C)CC[C@H](OC(C)=O)C(C)(C)C3CC[C@]12C)C(=O)OC (stereo partly shown) [Compound 8]", 0.82],
  ["CCOC(=O)C(NCCCCC[C@](C)(OC(C)=O)C1CC[C@]2(C)[C@@H]1C(OC(C)=O)CC1[C@@]3(C)CC[C@H](OC(C)=O)C(C)(C)C3CC[C@]12C)C(C)OCC (stereo partly shown) [Compound 26]", 0.94],
  ["CC(=O)OC1CC2[C@@]3(C)CC[C@H](OC(C)=O)C(C)(C)C3CC[C@@]2(C)[C@]2(C)CCC([C@](C)(CCC=C(C)C)OC(C)=O)[C@@H]12 (stereo partly shown) [Compound 16]", 0.88],
  ["COC(=O)[C@H](NCCC[C@](C)(O[C@H]1O[C@H](COC(C)=O)[C@@H](OC(C)=O)[C@H](OC(C)=O)[C@H]1OC(C)=O)C1CC[C@]2(C)[C@@H]1C(OC(C)=O)CC1[C@@]3(C)CC[C@H](OC(C)=O)C(C)(C)C3CC[C@]12C)[C@@H](C)O (stereo partly shown) [Compound 6]", 0.83]
]}
